Entries and their protein stability index values follow.
# assay text: protein stability index of a GFP-peptide fusion (GPS, HEK-293T) (PSI 1-6); higher = more stable;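 also: 24-mer peptide tiles fused after GFP, lentivirally expressed, FACS-sorted into six equal bins by GFP/DsRed ratio, decoded by Illumina sequencing, PSI is the read-weighted mean bin number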
# test context: treatment: DMSO; c terminus: a fixed tail appended

- sequence content: "GAAVGTGSSYPTTTISYLPHAPPF [JUNB]"
  protein stability index: 3.1
- sequence content: "QDACQAQAREKELLELQSQQACTH [CCDC89]"
  protein stability index: 4.91
- sequence content: "GEPQQDCCVKTELLGEETPMAADE [EHMT1]"
  protein stability index: 5.55
- sequence content: "DRVILSSSTSCLMPSKLFAGLVHV [CRYL1]"
  protein stability index: 2.27
- sequence content: "LEEAEGAVGYQPEYSKFCRMSYQD [NFE2L1]"
  protein stability index: 3.56
- sequence content: "VPTCSMCKVFGIHKACEVAPLQSV [TRIM63]"
  protein stability index: 2.64
- sequence content: "KESESEAKVDGETASDSESRAESA [CDS2]"
  protein stability index: 5.6
